Would you kindly list IC50 for each of these molecules?
biological target: Endothelin-1 receptor (Homo sapiens, UniProt P25101); experiment: Displacement of [I125]ET1 from Homo sapiens (human) ETA receptor expressed in CHO cells
Sequence (P25101 whole entry): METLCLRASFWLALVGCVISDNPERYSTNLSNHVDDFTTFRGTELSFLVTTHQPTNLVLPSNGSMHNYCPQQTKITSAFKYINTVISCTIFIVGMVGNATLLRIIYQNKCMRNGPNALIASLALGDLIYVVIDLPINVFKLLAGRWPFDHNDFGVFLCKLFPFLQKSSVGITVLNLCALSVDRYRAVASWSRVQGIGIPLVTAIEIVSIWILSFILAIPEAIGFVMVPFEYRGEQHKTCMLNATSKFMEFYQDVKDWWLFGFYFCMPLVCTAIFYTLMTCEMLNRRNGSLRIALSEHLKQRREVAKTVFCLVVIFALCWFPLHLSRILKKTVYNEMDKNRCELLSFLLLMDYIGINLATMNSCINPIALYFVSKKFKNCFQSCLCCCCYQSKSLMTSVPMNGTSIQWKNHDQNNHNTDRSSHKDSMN
One number for each entry, in nM.

Before answering, review these 8 worked examples.
molecule: CCOC(=O)c1ccc2c(C(C(=O)NS(=O)(=O)c3ccc(C)cc3OC)c3ccc4c(c3)OCO4)cn(C)c2c1 (racemic)
study-system: Endothelin-1 receptor (Homo sapiens, UniProt P25101)
IC50 (nM): 18

molecule: COc1cc(C)ccc1S(=O)(=O)NC(=O)[C@@H](c1ccc2c(c1)OCO2)c1cn(C)c2cc(CO)ccc12
study-system: Endothelin-1 receptor (Homo sapiens, UniProt P25101)
IC50 (nM): 2.2

molecule: COc1cc(C)ccc1S(=O)(=O)NC(=O)C(c1ccc2c(c1)OCO2)c1cn(C)c2cc(C(C)=O)ccc12 (racemic)
study-system: Endothelin-1 receptor (Homo sapiens, UniProt P25101)
IC50 (nM): 1.4

molecule: Cn1cc(C(C(=O)NS(=O)(=O)c2ccc(CC(=O)O)cc2)c2ccc3c(c2)OCO3)c2ccc(C(N)=O)cc21 (racemic)
study-system: Endothelin-1 receptor (Homo sapiens, UniProt P25101)
IC50 (nM): 1.7

molecule: COc1cc(C)ccc1S(=O)(=O)NC(=O)C(c1ccc2c(c1)OCO2)c1cn(C)c2cc(Cl)ccc12 (racemic)
study-system: Endothelin-1 receptor (Homo sapiens, UniProt P25101)
IC50 (nM): 46

molecule: COc1cc(C)ccc1S(=O)(=O)NC(=O)C(c1ccc2c(c1)OCO2)c1cn(C)c2cc(CO)ccc12 (stereo not drawn)
study-system: Endothelin-1 receptor (Homo sapiens, UniProt P25101)
IC50 (nM): 8.7

molecule: COCc1ccc2c(C(C(=O)NS(=O)(=O)c3ccc(C)cc3OC)c3ccc4c(c3)OCO4)cn(C)c2c1 (racemic)
study-system: Endothelin-1 receptor (Homo sapiens, UniProt P25101)
IC50 (nM): 8.8

molecule: COc1cc(C)ccc1S(=O)(=O)NC(=O)C(c1ccc2c(c1)OCO2)c1cn(C)c2cc(C(=O)O)ccc12 (racemic)
study-system: Endothelin-1 receptor (Homo sapiens, UniProt P25101)
IC50 (nM): 5.3

Value sought for every listed molecule: IC50.
1. Cc1ccc(S(=O)(=O)NC(=O)C(c2ccc3c(c2)OCO3)c2cn(C)c3cc(CO)ccc23)cc1 (racemic)
2. COc1cc(C)ccc1S(=O)(=O)NC(=O)C(c1ccc2c(c1)OCO2)c1cn(C)c2cc(C#N)ccc12 (racemic)
3. CCn1cc(C(C(=O)NS(=O)(=O)c2ccc(C(C)C)cc2)c2ccc3c(c2)OCO3)c2ccccc21 (racemic)
4. COc1cc(C)ccc1S(=O)(=O)NC(=O)[C@@H](c1ccc2c(c1)OCO2)c1cn(C)c2cc(C(=O)O)ccc12
5. COc1cc(C)ccc1S(=O)(=O)NC(=O)C(c1ccc2c(c1)OCO2)c1cn(C)c2cc(F)ccc12 (racemic)

**A:**
1. 34
2. 11
3. 560
4. 4.2
5. 14

---

assay: Half life in Rattus norvegicus (rat) liver microsome at 1 uM; format: ADME; conditions: liver microsomes
readout-kind: half-life at 1 µM

**Q:** What does the record list as half-life at 1 µM for "COc1cc(C)ccc1S(=O)(=O)NC(=O)[C@@H](c1ccc2c(c1)OCO2)c1cn(C)c2cc(CO)ccc12" ?
**A:** > 2 h
